Cited source for all entries: PubChem BioAssay AID1745853

biological target: Histamine N-methyltransferase (Homo sapiens); test: Primary Screen for Target Class Profiling of Small Molecule Inhibitors of Methyltransferases; conditions: purified enzyme, MTase-Glo SAH luminescence; measured here: HNMT inhibition; at 40 µM; stronger effect = lower value; also: % is scaled to controls: 0 for no effect and ±100 for the full control effect
Out of some 25,000 compounds screened, about 970 (3.9%) were called active. About 8% were inconclusive and are not listed. The list comes from a sample in which actives are over-represented; it also holds close analogues and randomly drawn compounds.
property_name: activity change, negative = inhibition (%)
Enter your answer as a number in %; do not include the unit.

- compound: "CC(C)n1c(=O)c2ccc(C(=O)NC3CCCCC3)cc2n2c(=O)n(CC(=O)NC3CCCCC3)nc12"
  activity change, negative = inhibition [%]: 2.13
- compound: "CC1(C)CCC2(C(=O)OC3OC(COC4OC(CO)C(O)C(O)C4O)C(O)C(O)C3O)CCC3(C)C(=CCC4C5(C)CCC(O)C(C)(C(=O)O)C5CCC43C)C2C1O (configuration not stated)"
  activity change, negative = inhibition [%]: 11.8
- compound: "Cc1ccc(COc2ccc3c(-c4ccccc4)cc(=O)oc3c2)cc1"
  activity change, negative = inhibition [%]: 3.98
- compound: "COCCOc1cc(=O)n2c(c1C(=O)NCc1ccccc1)CCOCC2"
  activity change, negative = inhibition [%]: 1.39
- compound: "CC(=O)c1ccc2c(c1)[C@H](NC(=O)c1ccc(F)c(Cl)c1)[C@H](O)C(C)(C)O2"
  activity change, negative = inhibition [%]: -2.99

Given the entry CCCCOc1ccc(CNC(=O)c2cc3n(n2)CC(C)(C(=O)NCc2ccccc2)N(C)C3=O)cc1 (configuration not stated) , report its measured activity change, negative = inhibition.
9.19

Param item: COc1ccc(NC(=O)c2ccc(-c3ccc(C(=N)N)cc3C)cc2)cc1N1CCN(C)CC1
-66.3

What about this compound? Cc1c(NS(=O)(=O)c2cccc3c2C(=O)c2ccccc2C3=O)c(=O)n(-c2ccccc2)n1C
-5.26
